# maps each entry to its pest or weed control at 280 g/ha
# System: Conyza canadensis (L.) (ERICA)
# assay details: Postemergence herbicide evaluation, percent reduction in plant size vs untreated control, 21 days after treatment
# Type: in vivo, Conyza canadensis (L.) (Horseweed)
# stated conditions: Erigeron canadensis, post-emergence, 504 h, ERICA, rate 280 g ae/ha, postemergence; read-out: Control/Injury
assay readout: pest or weed control at 280 g/ha

- compound smiles: "CCCNNC(=O)c1c(Cl)ccc(Cl)c1OC"
  assay readout: "pest or weed control at 280 g/ha"
  val: "10%"
- compound smiles: "COc1c(Cl)ccc(Cl)c1C(=O)N1CCCCO1"
  assay readout: "pest or weed control at 280 g/ha"
  val: "10%"
- compound smiles: "CCc1nnc(OC(=O)c2c(Cl)ccc(Cl)c2OC)s1"
  assay readout: "pest or weed control at 280 g/ha"
  val: "10%"
- compound smiles: "COc1c(Cl)ccc(Cl)c1C(=O)NNc1ccccc1"
  assay readout: "pest or weed control at 280 g/ha"
  val: "30%"
- compound smiles: "COc1c(Cl)ccc(Cl)c1C(=O)Nc1ccon1"
  assay readout: "pest or weed control at 280 g/ha"
  val: "10%"
- compound smiles: "COc1c(Cl)ccc(Cl)c1C(=O)NNCc1ccccc1"
  assay readout: "pest or weed control at 280 g/ha"
  val: "10%"

* * *

# Test system: Conyza canadensis (L.) (ERICA)
# assay details: Postemergence herbicide evaluation, percent reduction in plant size vs untreated control, 21 days after treatment
# Type: in vivo, Conyza canadensis (L.) (Horseweed)
# stated conditions: Erigeron canadensis, post-emergence, 504 h, ERICA, rate 280 g ae/ha, postemergence; read-out: Control/Injury
# maps each entry to its pest or weed control at 280 g/ha

- compound smiles: "COc1c(Cl)ccc(Cl)c1C(=O)Oc1nccs1"
  pest or weed control at 280 g/ha: "3%"
- compound smiles: "COc1c(Cl)ccc(Cl)c1C(=O)ONC(=O)c1cccnc1"
  pest or weed control at 280 g/ha: "99%"
- compound smiles: "COc1c(Cl)ccc(Cl)c1C(=O)n1ccnc1"
  pest or weed control at 280 g/ha: "33%"

* * *

# System: Glycine max
# assay details: whole plant or invertebrate
# stated conditions: Glycine max, post-emergence, 504 h, read-out: Control/Injury

- compound: "COc1c(Cl)ccc(Cl)c1C(=O)ON(C)C(=O)Nc1ccccc1 [Compound A-75]"
  plant injury at 140 g/ha, %: 3
- compound: "COc1c(Cl)ccc(Cl)c1C(=O)NS(=O)(=O)c1ccc(C)cc1 [Compound A-78]"
  plant injury at 140 g/ha, %: 25
- compound: "COCCONC(=O)c1c(Cl)ccc(Cl)c1OC [Compound A-95]"
  plant injury at 140 g/ha, %: 4
- compound: "CO/C(=N\\OC(=O)c1c(Cl)ccc(Cl)c1OC)c1ccccc1 [Compound A-83]"
  plant injury at 140 g/ha, %: 22
- compound: "CCO/C(C)=N\\OC(=O)c1c(Cl)ccc(Cl)c1OC [Compound A-93]"
  plant injury at 140 g/ha, %: 10
- compound: "COc1c(Cl)ccc(Cl)c1C(=O)OC(=O)c1c(Cl)ccc(Cl)c1OC [Compound A-90]"
  plant injury at 140 g/ha, %: 8
- compound: "COc1c(Cl)ccc(Cl)c1C(=O)O/N=C/c1cccnc1 [Compound A-81]"
  plant injury at 140 g/ha, %: 19
- compound: "COc1c(Cl)ccc(Cl)c1C(=O)O/N=C/c1ccco1 [Compound A-88]"
  plant injury at 140 g/ha, %: 10
- compound: "CCOC(=O)/C(C#N)=N/OC(=O)c1c(Cl)ccc(Cl)c1OC [Compound A-86]"
  plant injury at 140 g/ha, %: 32
- compound: "COc1c(Cl)ccc(Cl)c1C(=O)O/N=C(\\SC)c1ccccc1 [Compound A-85]"
  plant injury at 140 g/ha, %: 5
- compound: "COc1c(Cl)ccc(Cl)c1C(=O)ON1C(=O)c2ccccc2C1=O [Compound A-74]"
  plant injury at 140 g/ha, %: 2
- compound: "COc1c(Cl)ccc(Cl)c1C(=O)O/N=C(\\C)C(C)(C)C [Compound A-82]"
  plant injury at 140 g/ha, %: 27
- compound: "CCCCCC(=O)NOC(=O)c1c(Cl)ccc(Cl)c1OC [Compound A-80]"
  plant injury at 140 g/ha, %: 2
- compound: "COc1c(Cl)ccc(Cl)c1C(=O)ONC(=O)c1ccccc1 [Compound A-89]"
  plant injury at 140 g/ha, %: 13
- compound: "CCOC(=O)C(=NOC(=O)c1c(Cl)ccc(Cl)c1OC)C(=O)OCC [Compound A-87]"
  plant injury at 140 g/ha, %: 5

* * *

# System: Glycine max
# assay details: whole plant or invertebrate
# stated conditions: in vivo

- compound smiles: "COc1c(Cl)ccc(Cl)c1C(=O)ON1C(=O)CCC1=O"
  Control/Injury: 1
- compound smiles: "COc1c(Cl)ccc(Cl)c1C(=O)NCc1ccccc1"
  Control/Injury: 3
- compound smiles: "COc1c(Cl)ccc(Cl)c1C(=O)O/N=C(\\N)CCCCC/C(N)=N/OC(=O)c1c(Cl)ccc(Cl)c1OC"
  Control/Injury: 0
- compound smiles: "COc1c(Cl)ccc(Cl)c1C(=O)Oc1nc(-c2ccccc2)cs1"
  Control/Injury: 5
